Target: T1, LAG3 Protein, Human, Recombinant (His Tag) (Sino Biological Catalog No. 16498-H08H) (human, UniProt P18627 23-450)
T1 construct: Bought protein; also called hLAG3-His; LAG3-His; not shown: His tag
T1 sequence (looked up): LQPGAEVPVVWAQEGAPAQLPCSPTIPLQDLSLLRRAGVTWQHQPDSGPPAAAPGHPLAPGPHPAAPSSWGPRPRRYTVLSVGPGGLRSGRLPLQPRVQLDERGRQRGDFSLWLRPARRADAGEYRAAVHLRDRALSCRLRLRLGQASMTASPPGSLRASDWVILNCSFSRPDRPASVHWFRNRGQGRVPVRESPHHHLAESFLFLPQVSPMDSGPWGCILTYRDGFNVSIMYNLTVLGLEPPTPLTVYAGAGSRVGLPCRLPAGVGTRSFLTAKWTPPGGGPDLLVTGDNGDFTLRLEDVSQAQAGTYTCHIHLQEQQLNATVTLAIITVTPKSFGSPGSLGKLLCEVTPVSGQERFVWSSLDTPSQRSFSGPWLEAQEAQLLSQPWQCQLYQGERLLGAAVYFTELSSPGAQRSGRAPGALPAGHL
Assay: SPR binning on LAG3-His; competitor 25
MEASURED PARAMETER: RU (RU)
One number for each entry, in RU.

1) sdAb No. 24 (VHH, Fc of the tested form not described; also called sdAb 24; not shown: Fc part implied by anti-human Fc capture) VHH: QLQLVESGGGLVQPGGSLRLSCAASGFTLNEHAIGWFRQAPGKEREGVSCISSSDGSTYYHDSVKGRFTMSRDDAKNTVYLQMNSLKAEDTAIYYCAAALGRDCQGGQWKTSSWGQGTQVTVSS | 33.2
2) sdAb No. 27 (VHH, Fc of the tested form not described; also called sdAb 27; not shown: Fc part implied by anti-human Fc capture and anti-human IgG Fc detection) VHH: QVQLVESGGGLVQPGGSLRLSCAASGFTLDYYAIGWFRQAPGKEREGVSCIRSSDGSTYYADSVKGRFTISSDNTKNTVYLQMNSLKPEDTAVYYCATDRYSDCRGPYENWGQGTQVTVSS | 34
3) sdAb No. 25 (VHH, Fc of the tested form not described; also called sdAb 25; sdAb #25; not shown: Fc part implied by anti-human Fc capture and anti-human IgG Fc detection) VHH: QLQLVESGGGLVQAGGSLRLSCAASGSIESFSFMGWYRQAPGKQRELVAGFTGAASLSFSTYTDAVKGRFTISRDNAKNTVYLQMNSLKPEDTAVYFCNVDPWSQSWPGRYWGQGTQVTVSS | 7.2

Provide each entry's RU from the list below.
1. sdAb No. 1 (VHH, the tested form was captured by anti-human Fc, its Fc is not described; also called sdAb 1; not shown: Fc part implied by anti-human Fc capture) VHH: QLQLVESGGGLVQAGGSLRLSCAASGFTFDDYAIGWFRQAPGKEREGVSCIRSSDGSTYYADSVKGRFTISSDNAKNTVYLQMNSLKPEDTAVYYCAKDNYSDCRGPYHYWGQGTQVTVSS
2. sdAb No. 21 (VHH, Fc of the tested form not described; also called sdAb 21; not shown: Fc part implied by anti-human Fc capture) VHH: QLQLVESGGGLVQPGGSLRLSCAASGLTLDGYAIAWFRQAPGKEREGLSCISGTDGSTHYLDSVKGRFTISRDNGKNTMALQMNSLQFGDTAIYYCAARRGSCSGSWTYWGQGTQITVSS
3. sdAb No. 73 (VHH, Fc not described; also called sdAb 73; not shown: Fc part implied by anti-human Fc capture) VHH: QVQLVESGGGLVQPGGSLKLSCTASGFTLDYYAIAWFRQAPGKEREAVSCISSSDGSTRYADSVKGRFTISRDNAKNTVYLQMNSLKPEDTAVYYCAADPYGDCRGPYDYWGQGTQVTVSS
4. sdAb No. 17 (VHH, Fc of the tested form not described; also called sdAb 17; not shown: Fc part implied by anti-human Fc capture and anti-human IgG1 Fc detection) VHH: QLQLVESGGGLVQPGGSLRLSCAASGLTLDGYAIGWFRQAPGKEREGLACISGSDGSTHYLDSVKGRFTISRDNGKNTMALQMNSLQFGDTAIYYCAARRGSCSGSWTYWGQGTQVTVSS

Data returned:
1. 30
2. 179
3. 9.8
4. 17.9

List reported RU for each of these binders:
1. sdAb No. 20 (VHH, Fc of the tested form not described; also called sdAb 20; not shown: Fc part implied by anti-human Fc capture) VHH: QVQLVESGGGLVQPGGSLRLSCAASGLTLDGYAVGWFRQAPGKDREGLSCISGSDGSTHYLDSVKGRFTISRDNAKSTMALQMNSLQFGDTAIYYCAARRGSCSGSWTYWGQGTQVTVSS
2. sdAb No. 18 (VHH, Fc of the tested form not described; also called sdAb 18; not shown: Fc part implied by anti-human Fc capture) VHH: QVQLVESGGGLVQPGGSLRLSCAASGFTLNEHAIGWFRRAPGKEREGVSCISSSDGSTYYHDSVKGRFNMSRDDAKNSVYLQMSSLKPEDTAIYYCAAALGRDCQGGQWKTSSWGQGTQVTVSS

Data returned:
1. 205
2. 274
